Assay: MM1S myeloma cell viability, profiling panel, resazurin fluorescence, basal, 24 h, PK04 Diversity Set (AID 1174);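 also: MM1S multiple myeloma cell line; test concentration not given here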
Conditions: higher = more signal, called active from +8 up or from −8 down
property: z-score

| compound | observed.measurement |
| --- | --- |
| Cc1ccc(S(=O)(=O)N[C@H]2COC(=O)CC=C[C@H](C)COC(=O)N[C@@H](C)C(=O)CC=C[C@@H]2C)cc1 | 1.71 |
| COC(=O)C1=CC(c2ccc(CO)cc2)=CC(c2cccs2)N(Cc2cccc(OC(F)(F)F)c2)C=C1C(=O)OC (centres undefined) | -1.67 |
| C=CC[C@]1(C(=O)O)N=C(c2ccc(OCCCO)cc2)O[C@H]1c1ccccc1 | 1.63 |
| O=C1O[C@@H](c2ccccc2)[C@@H](c2ccccc2)N2[C@@H](c3ccccc3OCCO)[C@]3(C(=O)Nc4ccc(C#CC5=CCCCC5)cc43)[C@@H](C(=O)O)[C@H]12 | -2.81 |

----------
Assay: binders of probe aFGF10 on microarray, primary screen, stem cell growth factor project, biochemical, small-molecule microarray, fluorescence 635/667 (AID 1071);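 also: score merges 667 nm spot intensity and signal to noise from triplicate slides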
Settings: higher = more signal
Label scheme for composite z-score: lower than 0.4 is class 0, 0.4 and above is class 1.

| compound | category.label |
| --- | --- |
| CCOC(=O)C[C@H]1[C@H](OC(=O)c2cc3ccccc3oc2=O)[C@@H](NC(=O)c2ccc3ccccc3c2)c2cc(OCCCO)ccc2N1C(=O)c1ccc2ccccc2n1 | class 1 |
| O=C1C2C=CC(C(O)C(c3ccccc3)c3ccccc3)N(Nc3ccc([N+](=O)[O-])cc3)C2C(=O)N1c1ccccc1 (centres undefined) | class 1 |
| C=CC(=O)O[C@@H](Cc1ccccc1)[C@H]1C2C=CCCC=C2CN1Cc1cccc(Cl)c1 (some centres undefined) | class 0 |
| O=C1O[C@H](c2ccccc2)[C@H](c2ccccc2)N2[C@H]1[C@@H](C(=O)NC[C@H](O)c1ccccc1)[C@]1(C(=O)Nc3ccc(C#CC4(O)CCCCCC4)cc31)[C@H]2c1ccc(OCCO)cc1 | class 1 |
| Cc1ccc(S[C@]2(C(=O)NC(C)C)CC(=O)N(Cc3cc(C(F)(F)F)cc(C(F)(F)F)c3)[C@@H]2c2ccc(CO)cc2I)cc1 | class 0 |
| C[C@H]1COC(=O)[C@H](Cc2ccccc2)NC(=O)[C@@H](C)COC(=O)[C@H](Cc2ccccc2)NC1=O | class 1 |
| C=CCN1C(=O)[C@@]2(O[C@@H](CCn3cc([C@H](O)c4ccccc4)nn3)[C@H]([Si](C)(C)c3ccc(OC)cc3)[C@H]2C)c2cc(N3CCOC3=O)ccc21 | class 0 |
| CCOC(=O)C[C@H]1[C@H](OC(=O)Cc2ccc3c(c2)OCO3)[C@@H](NC(=O)CC(C)C)c2cc(OCCCO)ccc2N1C(=O)c1ccccc1 | class 1 |
| Cc1ccc(S(=O)(=O)N2[C@@H](c3ccccc3)C(C(=O)O)=CC[C@H]2c2ccccc2)cc1 | class 1 |
| COCCCNC(=O)[C@@]1(c2ccc([N+](=O)[O-])cc2)CC(=O)N(C2CCCCC2)[C@@H]1c1ccc(CO)cc1 | class 0 |
| C=CC[C@]1(C(=O)O)N=C(c2ccc(OCCCO)cc2)O[C@H]1c1ccccc1 | class 0 |
| COc1ccc(CCNC(=O)[C@@]2(c3ccc([N+](=O)[O-])cc3)CC(=O)N(C(C)C)[C@@H]2c2ccc(CO)cc2)cc1 | class 0 |
| C=CCC(OC(C)=O)[C@@H]1[C@@H](N(Cc2ccc(-c3ccccc3)cc2)C(=O)c2ccc(C)cc2)c2cc(OCCCO)ccc2N1C(=O)c1ccc(-c2ccccc2)cc1 (some centres undefined) | class 0 |
| COc1ccc([Si](C)(C)[C@H]2[C@H](CC(=O)N3Cc4ccccc4C[C@H]3CO)O[C@@]3(C(=O)N(Cc4cccc(N5CCOC5=O)c4)c4ccccc43)[C@@H]2C)cc1 | class 0 |
| CCC1=C2CN(Cc3ccccc3Br)[C@@H]([C@@H](O)Cc3ccccc3)C2C=CCC1 (some centres undefined) | class 1 |
| C=CC[C@@]12N=C(c3ccc(OCCCO)cc3)O[C@@H]1c1ccccc1CN(Cc1ccccc1)C2=O | class 0 |
| C[C@@H]1C=CCC(=O)OC[C@H]2O[C@@H](C=C[C@@H]2O)[C@H](C)C=CCC(=O)OC[C@H]2O[C@H]1C=C[C@@H]2O | class 1 |
| CC(C)(C)OC(=O)CC[C@@]1(C(=O)NCc2ccccc2)N=C(c2ccc(OCCCO)cc2)O[C@@H]1c1ccccc1 | class 0 |
| [N-]=[N+]=NCc1ccccc1C[C@@]1(C(=O)O)N=C(c2ccc(OCCCO)cc2)O[C@@H]1c1ccccc1N=[N+]=[N-] | class 0 |
| CC(C)N1CC=CC23O[C@@H]4/C=C\CCCOC(=O)C4[C@H]2C(=O)N(CCCCCO)[C@@H]3C1=O (some centres undefined) | class 0 |
| CCCC=C(CCC)[C@@H](NC(=O)c1ccc(C(F)(F)F)cc1)c1ccccc1 | class 0 |
| CO[C@H]1COC(=O)CC=C[C@H](C)COC(=O)[C@@H](OCc2ccccc2)C=C[C@@H]1C | class 0 |
| CO[C@H]1COC(=O)CC=C[C@@H](C)COC(=O)[C@@H](C)NC(=O)CC=C[C@@H]1C | class 0 |
| CCOC(=O)C1=CC[C@@H](c2ccccc2)N(S(=O)(=O)c2ccc(C)cc2)[C@H]1C | class 1 |
| COc1ccc([Si](C)(C)[C@@H]2[C@@H](CCO)O[C@]3(C(=O)N(Cc4ccccc4)c4ccccc43)[C@H]2C)cc1 | class 0 |
| C=C(CCCC)/C(=C/C[C@H](OC(=O)c1ccncc1)c1cccc(OCCO)c1)c1cc(C(=O)OC)ccc1OC | class 1 |
| N#Cc1ccc(NN2C(C(O)c3ccc(I)cc3)C=CC3C(=O)N(c4ccccc4)C(=O)C32)cc1 (centres undefined) | class 1 |
| COc1cc2c(cc1OC)CN(C(=O)[C@H]1[C@@H]3C(=O)O[C@@H](c4ccccc4)[C@@H](c4ccccc4)N3[C@@H](c3ccccc3OCCO)[C@]13C(=O)Nc1ccc(C#CC4(O)CCCCCC4)cc13)CC2 | class 1 |
| CC(C)CNC(=O)[C@@]1(C)c2ccccc2C(=O)N(Cc2ccc(OC(F)(F)F)cc2)[C@H]1c1ccc(CO)cc1 | class 0 |
